Taken from paper PMC7529555.

Tested on: osimertinib metabolism in rat liver microsomes
Test: Inhibition by avitinib of osimertinib metabolism in rat liver microsomes
Assay type: in vitro ADME
Details: pH 7.4, probe osimertinib 0.01 μM
measuredMetric: pIC50
# pIC50: negative log10 of molar concentration; output just the value

What the record says about C=CC(=O)Nc1cccc(Oc2nc(Nc3ccc(N4CCN(C)CC4)c(F)c3)nc3[nH]ccc23)c1 : pIC50 is 4.56

* * *

Assay: Metabolic stability of osimertinib in RLMs
Format: in vitro ADME, rat
Conditions: rat, rat liver microsomes, pH 7.4
measuredMetric: half-life at 0.01 μM

So, C=CC(=O)Nc1cc(Nc2nccc(-c3cn(C)c4ccccc34)n2)c(OC)cc1N(C)CCN(C)C ? Its half-life at 0.01 μM was 33.6 min
